measured.parameter: melting point

Reference set, count: 5
molecule	melting point
O=c1[nH]c(=O)n(CCCCN2CC=C(c3ccccc3)CC2)c2ccccc12	170 to 174 °C
CCOC(=O)c1cncc(OC)c1CCCO	85 to 89 °C
N=C(Nc1ccc(Cl)cc1)Nc1ncccc1OCc1c(Cl)cccc1Cl	192 to 195 °C
O=S1(=O)N=CN(C2CC2)c2cc(I)ccc21	304 to 307 °C
C#CCOc1ccc(CCNC(=O)C(=NOC)c2ccc(Cl)c(Cl)c2)cc1OC	107 to 108 °C

Field melting point (entry COc1ccccc1N1CCN(Cc2c[nH]c3ccccc23)CC1 ) reads 188 to 190 °C

Data point: O=C1C(O)=C(c2ccccc2)C(=O)C(O)=C1/C=C/c1ccccc1 ; melting point = 259 to 260 °C

Recorded melting point (molecule Cc1ccc(S(=O)(=O)OCCCCCCCn2c3c(c4ccccc4c2=O)C(=O)c2ccccc2-3)cc1 ): 123 to 126 °C

Entry COCCOCCOc1ccc(NC(=O)NCc2ccc3c(c2)CN(C2CCC(=O)NC2=O)C3=O)cc1Cl (stereo not given) ; melting point = 188 to 190 °C

Input Cc1csc(C2=CCN(CCCC(O)c3ccc(F)cc3)CC2)n1 (stereo not given) . Output melting point: 89 to 90.5 °C

The reported melting point of the molecule Cc1cc(OCC(O)CCCl)ccc1Cl (stereo not given) was 87 to 89 °C

Reported melting point for CN(C)CC(=O)NCc1nc(C(=O)N(C)C)nn1-c1ccc(Cl)cc1C(=O)c1ccccc1Cl was 122 to 124 °C

melting point in this record for CCCC(=NOCC)C1=C(O)CC(c2c(C)c(C)c(C)c3cc(C(C)=O)oc23)CC1=O (stereo not given) : 154 °C

Reported melting point of Cn1c(C=O)cnc1[N+](=O)[O-] : 114 to 115 °C

Entry CC1Cc2cc3c(cc2C(c2ccc([N+](=O)[O-])cc2)=NN1c1nc(C(=O)O)cs1)OCO3 (stereo not given) , melting point reported as > 260 °C

Noted for CCCCCCn1nc(-c2ccc(C(F)(F)F)cc2)cc1CCC(=O)c1ccc(OCC(=O)O)c(C)c1 : its melting point reads 118 to 123 °C

// melting point lookup, molecule = Clc1ccccc1C1=NOCCS1 , result: 51 to 52 °C

Reported melting point of Cc1nc2c3c(c(C(=O)N4CCCC4)cc2n1C)CCC1(Cc2ccccc2C1)N3 : 263 to 264 °C

GET /value?item= Oc1ccc(O)c(C2(c3ccccc3)CC3CCC2C3)c1 (stereo not given) &field=melting point returns 179 to 181 °C

Value of melting point reported for the molecule CN(C)CCOc1ccccc1-c1cc(NC(N)=O)c(C(N)=O)s1 is 180 °C
